target: YdiI (Escherichia coli, UniProt P77781); assay: steady-state inhibition of 4-hydroxybenzoyl-CoA hydrolysis, direct […] nm assay; type: biochemical
Sequence (P77781 whole entry): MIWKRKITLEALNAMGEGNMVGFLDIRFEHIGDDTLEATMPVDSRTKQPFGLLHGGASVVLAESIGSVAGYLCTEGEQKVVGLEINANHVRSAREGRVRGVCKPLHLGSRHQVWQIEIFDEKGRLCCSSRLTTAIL
pKi: −log10 of the molar value.
Property name: pKi

>>> recorded_value("CC(C)(COP(=O)(O)OP(=O)(O)OC[C@H]1O[C@@H](n2cnc3c(N)ncnc32)[C@H](O)[C@@H]1OP(=O)(O)O)[C@@H](O)C(=O)NCCC(=O)NCCS")
4.80
